Provenance of the data: paper PMC12416549

Target: T1, TNFR1 (Homo sapiens, UniProt P19438)
T1 chain: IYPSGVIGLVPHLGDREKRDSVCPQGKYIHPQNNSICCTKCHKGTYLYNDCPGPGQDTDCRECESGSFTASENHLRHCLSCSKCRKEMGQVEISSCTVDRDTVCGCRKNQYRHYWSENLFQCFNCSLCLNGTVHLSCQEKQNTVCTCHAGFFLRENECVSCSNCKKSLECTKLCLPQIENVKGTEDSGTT
Test: yeast display SC50
In this section, each of the binders is paired with its reported apparent Kd (screen).
measured-attribute: apparent Kd (screen)

- binder: "A9I (designed binder) SMEEEVEKIAKEYEKKKKEAIEKHLEKLKAKDKEAAERFLKELEEAAKEYAKDEAKTMSEEEAKRRAKKYKEKVLLSELSEEEQKEIKEAEEKLVRTILKYVEEAAK"
  recorded-result: "0.446 nM"
- binder: "A63C (designed binder) SMEEEVEKAAKEYEKKKKEAIEKHLEKLKAKDKEAAERFLKELEEAAKEYAKDEAKTMSEEECKRRAKKYKEKVLLSELSEEEQKEIKEAEEKLVRTILKYVEEAAK"
  recorded-result: "26.9 nM"
- binder: "E86I (designed binder) SMEEEVEKAAKEYEKKKKEAIEKHLEKLKAKDKEAAERFLKELEEAAKEYAKDEAKTMSEEEAKRRAKKYKEKVLLSELSEEEQKIIKEAEEKLVRTILKYVEEAAK"
  recorded-result: "1.69 nM"
- binder: "R96K (designed binder) SMEEEVEKAAKEYEKKKKEAIEKHLEKLKAKDKEAAERFLKELEEAAKEYAKDEAKTMSEEEAKRRAKKYKEKVLLSELSEEEQKEIKEAEEKLVKTILKYVEEAAK"
  recorded-result: "0.718 nM"
